Reference for the values: patent US20230322953A1

- assayed.target: T1, biotinylated human BCMA-Fc, Avitag recombinant protein (ACRO Biosystems, #BC7-H82F0) (human, UniProt Q02223 1-54, biotinylated)
- T1 construct: extracellular domain; Bought protein; also called human BCMA protein; recombinant human BCMA-ECD-Fc; not shown: Fc of the bought fusion protein; Avitag
- T1 sequence (looked up): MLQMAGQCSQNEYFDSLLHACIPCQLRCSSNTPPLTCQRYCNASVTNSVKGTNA
- procedure.text: BLI (Octet Red96e), biotinylated BCMA-Fc on SA sensor, VH supernatant, 100 nM, single concentration
metric: koff (s⁻¹)
Number in s⁻¹, nothing else.

Solved entries (count: 2):
binder	metric	numeric.readout
PR004564, PR001046 VH-derived single-domain variant 1046-R2-2D4 (VHH, Tested as VH single domain with Flag and His tags; not shown: Flag and His tags) VHH: EVQLVETGGGLIQPGGSLRLSCAASGFTVSDSYMTWVRQAPGKGLEWVSVIFSGGRTYYSDSVKGRFTISRDNAKNTLYLQMNSLRAEDTALYYCARRNYDQTLGTDVFDIWGQGTMVTVSS	koff	0.000228
PR001046 VH single-domain molecule (original molecule) (VHH, not the HCAb form; not shown: Flag and His tags) VHH: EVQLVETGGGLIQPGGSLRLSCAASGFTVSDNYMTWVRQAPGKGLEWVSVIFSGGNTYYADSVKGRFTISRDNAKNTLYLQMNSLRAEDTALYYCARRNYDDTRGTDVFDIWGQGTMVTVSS	koff	0.000696

Kindly consider the entry below.
Incoming: What koff value was documented for this binder, PR004561, PR001046 VH-derived single-domain variant 1046-R2-10H1 (VHH, Tested as VH single domain with Flag and His tags; not shown: Flag and His tags) VHH: EVQLVETGGGLIQPGGSLRLSCAASGFTVSDSYMTWVRQAPGKGLEWVSVIFSGGNTYYADSVKGRFTISRDNAKNTLYLQMNSLRAEDTALYYCARRNYDQTLGTDVFDIWGQGTMVTVSS ?
Outgoing: 0.0003
